B1: library; a variant is named by its letters at N, in order (parent)
chain: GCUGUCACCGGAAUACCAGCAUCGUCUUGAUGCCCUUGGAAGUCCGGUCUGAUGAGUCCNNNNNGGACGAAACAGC

variants of: B1; assay: FACS-Seq fitted mean relative fluorescence mCherry/BFP without ligand (log10 relative fluorescence); higher = higher reporter protein expression; settings: HEK293T, ligand present: no
Assign TRUE whenever FACS-Seq fitted mean (log10) does not fall below 0.7; assign FALSE whenever it does.

variant name	category label
CUGCC	TRUE

In: Decide: is the reported value of FACS-Seq fitted mean (log10) for ACAGC equal to or greater than 0.7?
Out: TRUE

In: I'd appreciate it if you could say whether AAUAA has FACS-Seq fitted mean (log10) at least equal to 0.7.
Out: FALSE

In: Reported FACS-Seq fitted mean (log10) reaches at least 0.7 for GACGU ?
Out: TRUE

In: Identify whether the reported FACS-Seq fitted mean (log10) of the following variant is 0.7 or greater: ACCGA
Out: FALSE

In: Is it the case that AAUCG has FACS-Seq fitted mean (log10) reaching or exceeding 0.7?
Out: TRUE

In: Textbook exercise: given the entry AUAAG , state whether its FACS-Seq fitted mean (log10) is greater than or equal to 0.7.
Out: FALSE

In: Is the recorded value of FACS-Seq fitted mean (log10) equal to or greater than 0.7 for this variant? CCUCU
Out: FALSE
